TEST TARGET: full-length beta-Catenin (Uniprot ID P35222) (Homo sapiens)
Construct: 10 nM full-length beta-Catenin (Uniprot ID P35222)
ASSAY PROCEDURE: Fluorescence polarization IC50 (beta-catenin / 5FAM-TCF4 10-53 competition)
Type: binding
EXPERIMENTAL CONTEXT: fluorescence polarization; read-out: beta-Catenin FP IC50
pIC50: −log10 of the molar value.
Known pIC50 of a selection of compounds
REPORTED METRIC: pIC50

{"columns": ["COMPOUND", "REPORTED METRIC", "MEASUREMENT"],
 "data": [
  ["CCC[C@@H]1NC(=O)[C@H](CC(=O)O)NC(=O)[C@]2(CC=CCCCC3(CCCC=CCCCCCC[C@@](C)(C(=O)N[C@@H](Cc4ccccc4)C(=O)N[C@@H](Cc4csc5ccccc45)C(=O)N[C@@H](CCC(N)=O)C(N)=O)NC(=O)[C@H](CCC(N)=O)NC(=O)[C@H](Cc4ccccc4)NC(=O)[C@H](C)NC(=O)[C@H](C)NC(=O)[C@H](CCC(=O)O)NC(=O)[C@H](CC(=O)O)NC3=O)NC1=O)CCCN2C(C)=O (stereo partly drawn) [I-522]", "pIC50", 7.12],
  ["CC(=O)N1CCC[C@]12CC=CCCCC1(CCCC=CCCCOC(=O)N3CC[C@@](C(=O)N[C@@H](Cc4ccccc4)C(=O)N[C@@H](Cc4csc5ccccc45)C(=O)N[C@@H](C)C(N)=O)(C3)NC(=O)[C@H](CC(N)=O)NC(=O)[C@H](Cc3ccccc3)NC(=O)[C@H](C)NC(=O)[C@H](CCC(N)=O)NC(=O)[C@H](CCC(N)=O)NC(=O)[C@H](CC(=O)O)NC1=O)NC(=O)[C@H](CC1CCCCC1)NC(=O)[C@H](CC(N)=O)NC2=O (stereo partly drawn)", "pIC50", 6.72],
  ["CC(=O)N1CCC[C@]12CC=CCCCC1(CCCC=CCCCOC(=O)N3CC[C@@](C(=O)N[C@@H](Cc4cccc(F)c4)C(=O)N[C@@H](Cc4csc5ccccc45)C(=O)N[C@@H](C)C(N)=O)(C3)NC(=O)[C@H](CC(C)C)NC(=O)[C@H](Cc3ccccc3)NC(=O)[C@H](C)NC(=O)[C@H](C)NC(=O)[C@H](Cc3cccc(C(=O)O)c3)NC(=O)[C@H](CC(=O)O)NC1=O)NC(=O)[C@H](CC(C)(C)C)NC(=O)[C@H](CC(=O)O)NC2=O (stereo partly drawn)", "pIC50", 7.47]
]}

====

ASSAY PROCEDURE: Solubility in PBS
Format: physicochemical
EXPERIMENTAL CONTEXT: Solubility (uM)
Listed compounds paired with reported solubility at 15 min

{"columns": ["COMPOUND", "solubility at 15 min"],
 "data": [
  ["CC(=O)N1CCC[C@]12CC=CCCCC1(CCCC=CCCCOC(=O)N3CC[C@@](C(=O)N[C@@H](Cc4ccccc4Br)C(=O)N[C@@H](Cc4csc5ccccc45)C(=O)N[C@@H](CCC(N)=O)C(N)=O)(C3)NC(=O)[C@H](CC(C)C)NC(=O)[C@H](Cc3ccccc3)NC(=O)[C@H](C)NC(=O)[C@H](C)NC(=O)[C@H](CC(=O)O)NC(=O)[C@H](CC(=O)O)NC1=O)NC(=O)[C@H](CC(C)(C)C)NC(=O)[C@H](CC(=O)O)NC2=O (stereo partly drawn) [I-1324]", "25 µM"],
  ["CC(=O)N1CCC[C@]12CC=CCCCC1(CCCC=CCCCOC(=O)N3CC[C@@](C(=O)N[C@@H](Cc4ccsc4)C(=O)N[C@@H](Cc4csc5ccccc45)C(=O)N[C@@H](CCC(N)=O)C(N)=O)(C3)NC(=O)[C@H](CC(C)C)NC(=O)[C@H](Cc3ccccc3)NC(=O)[C@H](C)NC(=O)[C@H](C)NC(=O)[C@H](CC(=O)O)NC(=O)[C@H](CCN)NC1=O)NC(=O)[C@H](CC(C)(C)C)NC(=O)[C@H](CC(=O)O)NC2=O (stereo partly drawn) [I-1217]", "15 µM"],
  ["CC(=O)N1CCC[C@]12CC=CCCCC1(CCCC=CCCCOC(=O)N3CC[C@@](C(=O)N[C@@H](CCc4ccccc4)C(=O)N[C@@H](Cc4csc5ccccc45)C(=O)N[C@@H](CCC(N)=O)C(N)=O)(C3)NC(=O)[C@H](CC(C)C)NC(=O)[C@H](Cc3ccccc3)NC(=O)[C@H](C)NC(=O)[C@H](C)NC(=O)[C@H](CC(=O)O)NC(=O)[C@H](CC(=O)O)NC1=O)NC(=O)[C@H](CC(C)(C)C)NC(=O)[C@H](CC(=O)O)NC2=O (stereo partly drawn) [I-1350]", "28 µM"]
]}

====

TEST TARGET: beta-catenin/TCF4 engagement (Homo sapiens, UniProt P35222)
Construct: expressed in transfected cells; host or cells: HEK293
Sequence (P35222 whole entry): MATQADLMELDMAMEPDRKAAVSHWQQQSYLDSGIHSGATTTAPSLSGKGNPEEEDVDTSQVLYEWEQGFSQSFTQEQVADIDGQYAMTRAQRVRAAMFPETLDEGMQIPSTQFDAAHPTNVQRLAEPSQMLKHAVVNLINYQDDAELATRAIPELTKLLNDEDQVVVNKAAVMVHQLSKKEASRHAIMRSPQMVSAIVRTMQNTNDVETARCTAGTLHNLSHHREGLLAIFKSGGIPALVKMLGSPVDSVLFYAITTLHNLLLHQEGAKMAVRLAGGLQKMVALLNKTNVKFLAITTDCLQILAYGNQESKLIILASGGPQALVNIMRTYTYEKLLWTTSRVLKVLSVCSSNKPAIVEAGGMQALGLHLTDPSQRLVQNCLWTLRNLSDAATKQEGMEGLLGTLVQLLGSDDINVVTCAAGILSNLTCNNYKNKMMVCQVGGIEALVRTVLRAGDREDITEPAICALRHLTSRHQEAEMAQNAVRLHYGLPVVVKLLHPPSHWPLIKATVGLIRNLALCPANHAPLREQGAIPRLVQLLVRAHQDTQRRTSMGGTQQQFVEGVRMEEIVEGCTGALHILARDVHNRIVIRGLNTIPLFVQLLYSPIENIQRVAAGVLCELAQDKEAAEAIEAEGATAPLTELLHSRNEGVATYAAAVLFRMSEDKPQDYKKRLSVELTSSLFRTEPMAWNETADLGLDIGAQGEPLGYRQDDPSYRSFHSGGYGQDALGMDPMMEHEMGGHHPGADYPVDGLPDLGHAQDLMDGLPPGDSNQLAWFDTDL
ASSAY PROCEDURE: Nano-BRET target engagement assay (B-cat-Halo & TCF4-Luc in HEK293 cells)
Format: cell-based
EXPERIMENTAL CONTEXT: absolute IC50; read-out: NanoBRET Abs IC50
pIC50: −log10 of the molar value.
REPORTED METRIC: pIC50

{"columns": ["COMPOUND", "TEST TARGET", "COMPARISON SYMBOL", "MEASUREMENT"],
 "data": [
  ["CC(=O)N1CCC[C@]12CC=CCCCC1(CCCC=CCCCOC(=O)N3CC[C@@](C(=O)N[C@@H](Cc4ccccc4C(F)(F)F)C(=O)N[C@@H](Cc4csc5ccccc45)C(=O)N[C@@H](CCC(N)=O)C(=O)N[C@@H](CC(C)C)C(=O)N[C@@H](CC(N)=O)C(N)=O)(C3)NC(=O)[C@H](CC(C)C)NC(=O)[C@H](Cc3ccccc3)NC(=O)[C@H](C)NC(=O)[C@H](C)NC(=O)[C@H](Cc3cccc(C(=O)O)c3)NC(=O)[C@H](CC(=O)O)NC1=O)NC(=O)[C@H](CC(C)(C)C)NC(=O)[C@H](CC(=O)O)NC2=O (some centres unmarked)", "beta-catenin/TCF4 engagement (Homo sapiens, UniProt P35222)", "=", 5.04],
  ["CC(=O)N1CCC[C@]12CC=CCCCC1(CCCC=CCCCCCC[C@@](C)(C(=O)N[C@@H](Cc3ccsc3)C(=O)N[C@@H](Cc3csc4ccccc34)C(=O)N[C@@H](CCC(N)=O)C(N)=O)NC(=O)[C@H](CC(N)=O)NC(=O)[C@H](Cc3ccccc3)NC(=O)[C@H](C)NC(=O)[C@H](C)NC(=O)[C@H](CC(=O)O)NC(=O)[C@H](CC(=O)O)NC1=O)NC(=O)[C@H](CC(C)C)NC(=O)[C@H](CC(=O)O)NC2=O (some centres unmarked) [I-680]", "beta-catenin/TCF4 engagement (Homo sapiens, UniProt P35222)", "=", 4.46],
  ["CC(=O)N1CCC[C@]12CC=CCCCC1(CCCC=CCCCOC(=O)N3CC[C@@](C(=O)N[C@@H](Cc4ccccc4Cl)C(=O)N[C@@H](Cc4csc5ccccc45)C(=O)N[C@H](CO)CC(C)C)(C3)NC(=O)[C@H]([C@@H](C)O)NC(=O)[C@H](Cc3ccccc3)NC(=O)[C@H](C)NC(=O)[C@H](C)NC(=O)[C@H](CC(=O)O)NC(=O)[C@H](CC(=O)O)NC1=O)NC(=O)[C@H](CC(C)(C)C)NC(=O)[C@H](CC(=O)O)NC2=O (some centres unmarked)", "beta-catenin/TCF4 engagement (Homo sapiens, UniProt P35222)", "<", 4.70],
  ["CC(=O)N1CCC[C@]12CC=CCCCC1(CCCC=CCCCOC(=O)N3CC[C@@](C(=O)N[C@@H](Cc4ccsc4)C(=O)N[C@@H](Cc4csc5ccccc45)C(=O)N[C@@H](CCC(N)=O)C(N)=O)(C3)NC(=O)[C@H](CC(C)C)NC(=O)[C@H](Cc3ccccc3)NC(=O)[C@H](C)NC(=O)[C@H](C)NC(=O)[C@H](Cc3c[nH]cn3)NC(=O)[C@H](CC(=O)O)NC1=O)NC(=O)[C@H](CC(C)(C)C)NC(=O)[C@H](CC(=O)O)NC2=O (some centres unmarked)", "beta-catenin/TCF4 engagement (Homo sapiens, UniProt P35222)", "<", 4.70],
  ["CC(=O)N1CCC[C@]12CC=CCCCC1(CCCC=CCCCOC(=O)N3CC[C@@](C(=O)N[C@@H](Cc4ccsc4)C(=O)N[C@@H](Cc4csc5ccccc45)C(=O)N[C@@H](CCC(N)=O)C(N)=O)(C3)NC(=O)[C@H](CC(C)C)NC(=O)[C@H](Cc3ccccc3)NC(=O)[C@H](C)NC(=O)[C@H](C)NC(=O)[C@H](CC(=O)O)NC(=O)[C@H](CC(=O)O)NC1=O)NC(=O)[C@H]([C@@H](C)O)NC(=O)[C@H](CC(=O)O)NC2=O (some centres unmarked)", "beta-catenin/TCF4 engagement (Homo sapiens, UniProt P35222)", "<", 4.70]
]}

Reference for the values: patent US20240116985A1
